assayed_target: FGFR4 (Homo sapiens, UniProt P22455)
Construct: made in house; host or cells: E. coli derived from BL21, infected with T7 phage
Sequence (P22455 22-802): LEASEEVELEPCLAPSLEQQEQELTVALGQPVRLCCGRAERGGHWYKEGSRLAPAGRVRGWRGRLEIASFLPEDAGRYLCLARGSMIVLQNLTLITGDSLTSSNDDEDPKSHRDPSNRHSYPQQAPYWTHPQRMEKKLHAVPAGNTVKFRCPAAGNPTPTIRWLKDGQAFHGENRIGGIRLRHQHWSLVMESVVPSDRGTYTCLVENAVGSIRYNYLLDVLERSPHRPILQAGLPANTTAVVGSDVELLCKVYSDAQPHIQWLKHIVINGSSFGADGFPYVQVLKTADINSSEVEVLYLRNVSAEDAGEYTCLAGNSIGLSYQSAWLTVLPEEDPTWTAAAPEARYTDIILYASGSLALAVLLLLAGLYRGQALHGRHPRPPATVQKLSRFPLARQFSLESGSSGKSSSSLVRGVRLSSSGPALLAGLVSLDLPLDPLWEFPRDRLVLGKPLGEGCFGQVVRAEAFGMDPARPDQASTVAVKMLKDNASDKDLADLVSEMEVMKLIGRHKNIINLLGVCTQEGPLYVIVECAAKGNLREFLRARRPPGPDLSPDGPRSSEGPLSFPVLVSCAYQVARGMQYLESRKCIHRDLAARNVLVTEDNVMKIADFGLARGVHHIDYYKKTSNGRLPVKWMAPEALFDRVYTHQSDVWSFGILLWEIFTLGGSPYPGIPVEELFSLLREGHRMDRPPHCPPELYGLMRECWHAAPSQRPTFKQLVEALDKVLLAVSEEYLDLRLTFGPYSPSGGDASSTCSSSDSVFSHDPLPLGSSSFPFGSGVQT
run_description: Kinase binding assay (kinase-tagged T7 phage, qPCR), Kd
cond: read-out: FGFR4 (Kd nM)
Description: Kinase-tagged T7 phage strains were prepared in an E. coli host derived from the BL21 strain. E. coli were grown to log-phase and infected with T7 phage and incubated with shaking at 32° C. until lysis. The lysates were centrifuged and filtered to remove cell debris. […] Test compounds were prepared as 111X stocks in 100% DMSO. Kds were determined using an 11-point 3-fold compound dilution series with three DMSO control points. […] The kinase concentration in the eluates was measured by qPCR. […]
Listed here: items and their measured Kd.

# compound, Kd
measured = [
    ("COc1cc(-c2n[nH]c3ccc(O[C@H](C)c4c(C)cnnc4C)cc23)cc(C#N)c1OC [Example 76]", "0.1 to 100 nM"),
    ("Cc1ncc(Cl)c([C@@H](C)Oc2ccc3[nH]nc(-c4ccc5c(c4)COC4(CCN(S(C)(=O)=O)CC4)O5)c3c2)c1Cl [Example 163]", "100 to 250 nM"),
    ("COc1cc(OC(C)C)cc(-c2n[nH]c3ccc(O[C@H](C)c4c(C)cnnc4C)cc23)c1 [Example 60]", "> 1000 nM"),
    ("CCN1CCC2(CC1)CC(=O)c1cc(-c3n[nH]c4ccc(O[C@H](C)c5c(C)cnnc5C)cc34)ccc1O2 [Example 99]", "0.1 to 100 nM"),
    ("COc1ncc(-c2n[nH]c3ccc(O[C@H](C)c4c(Cl)cncc4Cl)cc23)cc1NC(=O)c1cccc2cccnc12 [Example 3]", "250 to 1000 nM"),
]

###

Listed here: items and their measured Kd.
assayed_target: FGFR2 (Homo sapiens, UniProt P21802)
Construct: made in house; host or cells: E. coli derived from BL21, infected with T7 phage
Sequence (P21802 22-821): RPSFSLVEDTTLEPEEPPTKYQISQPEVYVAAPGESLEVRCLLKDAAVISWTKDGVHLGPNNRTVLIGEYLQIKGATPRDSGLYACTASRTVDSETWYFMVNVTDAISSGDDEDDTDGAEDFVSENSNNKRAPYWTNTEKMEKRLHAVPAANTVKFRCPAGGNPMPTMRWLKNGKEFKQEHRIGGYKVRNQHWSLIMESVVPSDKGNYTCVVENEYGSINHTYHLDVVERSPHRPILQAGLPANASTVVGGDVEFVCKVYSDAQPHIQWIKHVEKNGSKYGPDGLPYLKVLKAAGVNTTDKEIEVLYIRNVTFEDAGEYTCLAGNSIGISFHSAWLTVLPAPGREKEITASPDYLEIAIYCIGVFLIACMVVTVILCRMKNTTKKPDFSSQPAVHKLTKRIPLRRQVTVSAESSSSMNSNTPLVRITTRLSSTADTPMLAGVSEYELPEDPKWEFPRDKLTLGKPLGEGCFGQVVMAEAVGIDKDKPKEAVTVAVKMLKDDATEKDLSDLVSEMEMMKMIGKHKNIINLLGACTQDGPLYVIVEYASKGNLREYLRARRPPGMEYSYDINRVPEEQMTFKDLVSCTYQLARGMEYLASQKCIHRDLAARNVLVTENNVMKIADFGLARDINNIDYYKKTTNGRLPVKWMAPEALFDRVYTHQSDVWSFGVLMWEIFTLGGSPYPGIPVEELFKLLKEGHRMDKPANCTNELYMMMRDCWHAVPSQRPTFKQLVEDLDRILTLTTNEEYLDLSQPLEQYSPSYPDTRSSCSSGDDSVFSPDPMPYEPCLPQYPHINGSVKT
run_description: Kinase binding assay (kinase-tagged T7 phage, qPCR), Kd
cond: read-out: FGFR2 (Kd nM)

# compound, Kd
rows = [
    ("C[C@@H](Oc1ccc2[nH]nc(-c3ccc4c(c3)COC3(CCN(S(C)(=O)=O)CC3)O4)c2c1)c1c(Cl)cncc1Cl", "0.1 to 100 nM"),
    ("Cc1cnnc(C)c1[C@@H](C)Oc1ccc2[nH]nc(-c3cc(C#N)cc(OC(C)C)c3)c2c1", "> 1000 nM"),
    ("COc1cc2[nH]nc(-c3cc(C#N)c(OC)c(OC)c3)c2cc1O[C@H](C)c1c(C)cnnc1C", "100 to 250 nM"),
    ("C[C@@H](Oc1ccc2[nH]nc(-c3cnc4c(c3)N(C(=O)N3CCOCC3)CCO4)c2c1)c1c(Cl)cncc1Cl", "250 to 1000 nM"),
    ("Cc1cc(C(=O)N2CCOc3ncc(-c4n[nH]c5ccc(O[C@H](C)c6c(Cl)cncc6Cl)cc45)cc32)ccn1", "> 1000 nM"),
    ("C[C@@H](Oc1ccc2[nH]nc(-c3ccnc(NCCO)c3)c2c1)c1c(Cl)cncc1Cl", "0.1 to 100 nM"),
    ("C[C@@H](Oc1ccc2[nH]nc(-c3cnc(O[C@H]4CCOC4)c(C#N)c3)c2c1)c1c(Cl)cncc1Cl", "0.1 to 100 nM"),
    ("C[C@@H](Oc1ccc2[nH]nc(-c3ccc(OC4C5CN(S(C)(=O)=O)CC54)nc3)c2c1)c1c(Cl)cncc1Cl (some centres unmarked)", "0.1 to 100 nM"),
]
